Items are presented alongside their recorded koff.
- Assay System: T1, biotinylated recombinant human IL-12Rβ2 (human, UniProt Q99665 24-622, random biotinylated)
- T1 construct: Recombinant protein produced in-house; also called hIL-12RB2; human IL-12RB2
- T1 sequence: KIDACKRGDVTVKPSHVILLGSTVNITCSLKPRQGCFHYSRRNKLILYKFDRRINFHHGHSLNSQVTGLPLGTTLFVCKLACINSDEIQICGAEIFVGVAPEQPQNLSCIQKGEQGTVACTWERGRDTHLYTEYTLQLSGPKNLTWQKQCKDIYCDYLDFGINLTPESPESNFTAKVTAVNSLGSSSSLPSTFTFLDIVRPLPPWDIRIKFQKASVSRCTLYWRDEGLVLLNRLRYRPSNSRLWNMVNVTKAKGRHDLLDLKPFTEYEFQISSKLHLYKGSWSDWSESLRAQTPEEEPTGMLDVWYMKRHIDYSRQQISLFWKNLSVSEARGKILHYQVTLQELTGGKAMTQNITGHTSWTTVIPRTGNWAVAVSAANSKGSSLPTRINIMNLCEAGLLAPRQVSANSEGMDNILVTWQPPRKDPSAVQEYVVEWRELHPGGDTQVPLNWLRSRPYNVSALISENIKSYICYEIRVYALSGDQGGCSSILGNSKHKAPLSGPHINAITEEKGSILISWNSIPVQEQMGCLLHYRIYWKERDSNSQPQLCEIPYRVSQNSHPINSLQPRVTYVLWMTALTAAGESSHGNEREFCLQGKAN
- Assay Method Text: BLI, P.E., off-rate ranking
Only the number, expressed in s⁻¹, is required.

Bench note: what koff did anti-IL-12Rβ2 VHH clone 3CRHS31 (clone ID 20418) (VHH, not shown: small tags and cut ends, periplasmic extract) VHH: QVQLQESGGGLVQAGGSLRLSCAASGFTFSTYAMSWVRQAPGKGLEWVSSVNSGGLSTDYADSVEGRFTISRDDAKNMLFLQMNSLKPEDTARYYCAKYEDCSDYVCDRAGYWGQGTQVTVSS show?
0.00429

Reported koff for anti-IL-12Rβ2 VHH clone 2CRHS4 (clone ID 20411) (VHH, not shown: small tags and cut ends, periplasmic extract) VHH: QVQLQESGGGLVQPGGSLRLSCVSSQTLVGIEAMGWYRQAPGKQRELVALITLNGGTFYADSVKGRFTISRDVAGHMLYLEMNSLNPEDTAVYFCVAGVESDNEEPTYWGQGTQVTVSS : what is it?
0.00311
